Where do these numbers come from? They come from patent US20260053811A1.

Assay: Pharmacokinetics (plasma Cmax, AUC, Tmax, t1/2, trough concentrations)
Format: in vivo, human
Details: human, plasma, oral, 100 mg, steady state Day 28; 100 mg QD Part 2; read-out: Cmax, Mean (SD)
property-measured: Cmax (ng/mL)
Answer with a number only, understood to be in ng/mL.

Inquiry: Return Cmax for the following compound: CC(=O)N[C@H]1CC[C@H](NC(=O)CN2CCN(c3nncc(-c4ccc(C)cc4)n3)CC2)CC1
Reply text: 1360

====

Test: Pharmacokinetics (plasma Cmax, AUC, Tmax, t1/2, trough concentrations)
Assay type: in vivo, human
Details: human, plasma, oral, 100 mg, steady state Day 28; 100 mg QD Part 2; read-out: AUC0-24, Geo Mean
property-measured: AUC(0-t) (ng·h/mL)
The answer is to be given in ng·h/mL; state only the numeric part.

Inquiry: For the compound CC(=O)N[C@H]1CC[C@H](NC(=O)CN2CCN(c3nncc(-c4ccc(C)cc4)n3)CC2)CC1 [Compound A HBr] , give its measured AUC(0-t) value.
Reply text: 6920

====

Experiment: Pharmacokinetics (plasma Cmax, AUC, Tmax, t1/2, trough concentrations)
Type: in vivo, human
Conditions: human, plasma, oral, 100 mg, Day 56; 100 mg QD Part 2; read-out: Trough Plasma Concentration, Median
property-measured: concentration at 56 day
# do not omit the unit; it follows the number

Inquiry: Determine from records and report concentration at 56 day for CC(=O)N[C@H]1CC[C@H](NC(=O)CN2CCN(c3nncc(-c4ccc(C)cc4)n3)CC2)CC1
Reply text: 20 ng/mL
